Assay: Kinetic solubility of compound in PBS at […] incubated for 30 mins by LC-MS/MS analysis
Format: physicochemical
Details: read-out: Kinetic_solubility
Decide by solubility kinetic at 0.5 h: equal to or exceeding 400 µM means Yes, less means No.

Could you please find out whether Nc1cccc2c1C(=O)N(C1CCC(=O)NC1=O)C2=O (stereo not given) [POMALIDOMIDE] has solubility kinetic at 0.5 h that meets 400 µM or exceeds it?
No

Could you please find out whether O=C1CCC(N2C(=O)c3ccccc3C2=O)C(=O)N1 (stereo not given) [THALIDOMIDE] has solubility kinetic at 0.5 h that meets 400 µM or exceeds it?
No

Could you please find out whether O=C1CC[C@H](N2Cc3c(OCc4ccc(CN5CCOCC5)cc4)cccc3C2=O)C(=O)N1 [IBERDOMIDE] has solubility kinetic at 0.5 h that meets 400 µM or exceeds it?
No

Could you please find out whether O=C1CCC(N2Cc3ccccc3C2=O)C(=O)N1 (stereo not given) has solubility kinetic at 0.5 h that meets 400 µM or exceeds it?
Yes

Could you please find out whether Nc1cccc2c1CN(C1CCC(=O)NC1=O)C2=O (stereo not given) [LENALIDOMIDE] has solubility kinetic at 0.5 h that meets 400 µM or exceeds it?
Yes

###

Assay: Metabolic stability in human liver microsome assessed as half-life at 1 uM in presence of NADPH incubated up to 60 mins by LC-MS/MS analysis
Format: ADME
Settings: liver microsomes
assayEndpoint: half-life at 1 µM (h)
Report as a plain number; the unit h is understood.

Entry O=C1CC[C@H](N2Cc3c(OCc4ccc(CN5CCOCC5)cc4)cccc3C2=O)C(=O)N1 [IBERDOMIDE] , half-life at 1 µM reported as 1.92

Let us move to another entry and its half-life at 1 µM.
Entry Nc1cccc2c1CN(C1CCC(=O)NC1=O)C2=O (stereo not given) [LENALIDOMIDE] , half-life at 1 µM reported as 2.07

###

Experiment: Distribution coefficient, logD of compound at 1 mg/ml measured at pH 7.4 by chromatography based LC-UV analysis
Type: physicochemical
Details: octanol/water
assayEndpoint: chromatographic logD
Form rule: numeric answer, no unit written next to it.

Completed entries (count: 3):
Entry O=C1CCC(N2Cc3ccccc3C2=O)C(=O)N1 (stereo not given) , chromatographic logD reported as 0.498

Entry Nc1cccc2c1CN(C1CCC(=O)NC1=O)C2=O (stereo not given) [LENALIDOMIDE] , chromatographic logD reported as -0.058

Entry O=C1CCC(N2C(=O)c3ccccc3C2=O)C(=O)N1 (stereo not given) [THALIDOMIDE] , chromatographic logD reported as 0.9

***
Entry Nc1cccc2c1C(=O)N(C1CCC(=O)NC1=O)C2=O (stereo not given) [POMALIDOMIDE] , chromatographic logD reported as 0.787

Entry O=C1CC[C@H](N2Cc3c(OCc4ccc(CN5CCOCC5)cc4)cccc3C2=O)C(=O)N1 [IBERDOMIDE] , chromatographic logD reported as 1.9

###

Assay: Apparent permeability in human Caco-2 cells at 10 uM incubated for 90 mins by LC-MS/MS analysis
Format: ADME, cell-based
assayEndpoint: Papp at 1.5 h, 10 µM (×10⁻⁶ cm/s)
Report as a plain number; the unit ×10⁻⁶ cm/s is understood.

Completed entries (count: 4):
Entry O=C1CCC(N2Cc3ccccc3C2=O)C(=O)N1 (stereo not given) , Papp at 1.5 h, 10 µM reported as 22.2

Entry Nc1cccc2c1C(=O)N(C1CCC(=O)NC1=O)C2=O (stereo not given) [POMALIDOMIDE] , Papp at 1.5 h, 10 µM reported as 24.9

Entry Nc1cccc2c1CN(C1CCC(=O)NC1=O)C2=O (stereo not given) [LENALIDOMIDE] , Papp at 1.5 h, 10 µM reported as 1.45

Entry O=C1CCC(N2C(=O)c3ccccc3C2=O)C(=O)N1 (stereo not given) [THALIDOMIDE] , Papp at 1.5 h, 10 µM reported as 35.6

***
Entry O=C1CC[C@H](N2Cc3c(OCc4ccc(CN5CCOCC5)cc4)cccc3C2=O)C(=O)N1 [IBERDOMIDE] , Papp at 1.5 h, 10 µM reported as 5.6
